- method: Plasma ranolazine pharmacokinetics before, during and after posaconazole in normal-weight and obese subjects
- Assay type: in vivo, human
- experimental.context: human, plasma, oral, 500 mg, Day 18 (3 days after last posaconazole dose); normal-weight subjects; ranolazine 500 mg ER; mean ± SD
measurement.type: AUC(0-inf) (ng·h/mL)
Answers are plain numbers, in ng·h/mL.

The molecule listed as COc1ccccc1OCC(O)CN1CCN(CC(=O)Nc2c(C)cccc2C)CC1 (stereo not shown) shows AUC(0-inf) equal to 17300

----------
- method: Plasma ranolazine pharmacokinetics before, during and after posaconazole in normal-weight and obese subjects
- Assay type: in vivo, human
- experimental.context: human, plasma, oral, Day 15 (last day of posaconazole 300 mg daily); normal-weight subjects; ranolazine 500 mg ER; mean ± SD; read-out: Cmax
measurement.type: Cmax

Briefly, Cmax measured for COc1ccccc1OCC(O)CN1CCN(CC(=O)Nc2c(C)cccc2C)CC1 (stereo not shown) [ranolazine] : 1430 ng/mL

----------
- method: Plasma ranolazine pharmacokinetics before, during and after posaconazole in normal-weight and obese subjects
- Assay type: in vivo, human
- experimental.context: human, plasma, oral, 500 mg, Geometric mean AUC for ranolazine, Day 1; normal-weight subjects; ranolazine 500 mg ER
measurement.type: AUC (ng·h/mL)
Numbers only, in ng·h/mL.

For COc1ccccc1OCC(O)CN1CCN(CC(=O)Nc2c(C)cccc2C)CC1 (stereo not shown) the molecule record lists AUC as 6450

----------
So I've got a bunch of compounds here, and I need their AUC target safe level, Percent of baseline values.
- method: AUC and Cmax target safe levels of CYP3A4 substrate drugs (Table 1)
- experimental.context: upper limit where benefits outweigh risks; approximation, can vary by about ±25%
Give bare numbers, in %.

>>> obs_value("CCN(CC)CCNC(=O)c1c(C)[nH]c(/C=C2\\C(=O)Nc3ccc(F)cc32)c1C")
151
>>> obs_value("C=CCN1CC[C@]23c4c5ccc(O)c4O[C@H]2[C@@H](OCCOCCOCCOCCOCCOCCOCCOC)CC[C@@]3(O)[C@H]1C5")
341

Could you report AUC target safe level, Percent of baseline for every entry in the following list?
1. O=C1CCc2ccc(OCCCCN3CCN(c4cccc(Cl)c4Cl)CC3)cc2N1
2. CC(C)(NC(=O)C1=C(O)[C@@H]2Oc3c(O)ccc4c3[C@@]23CCN(CC2CC2)[C@H](C4)[C@]3(O)C1)c1nc(-c2ccccc2)no1
3. CC(C)(C)c1cc(C(C)(C)C)c(NC(=O)c2c[nH]c3ccccc3c2=O)cc1O

Out:
1: 170; 2: 190; 3: 300

----------
- method: Example 2: posaconazole pharmacokinetics in normal-weight and obese subjects
- Format: in vivo, human
- experimental.context: human, plasma, oral, controls (normal-weight); read-out: Mean washout half-life (converted)
measurement.type: half-life (h)
Give bare numbers, in h.

Form field half-life, entry CC[C@@H]([C@H](C)O)n1ncn(-c2ccc(N3CCN(c4ccc(OC[C@@H]5CO[C@@](Cn6cncn6)(c6ccc(F)cc6F)C5)cc4)CC3)cc2)c1=O : 30.7

----------
- Test system: CYP3A
- method: Example 2: lurasidone pharmacokinetics during and after posaconazole (drug-drug interaction)
- Type: in vivo
- experimental.context: human, plasma, oral, 20 mg, Obese, Day 20 (posaconazole given Days 4-17); read-out: Lurasidone elimination half-life, arithmetic mean ± S.E. (converted)
measurement.type: half-life (h)
One number for each entry, in h.

So, O=C1[C@@H]2[C@H]3CC[C@H](C3)[C@@H]2C(=O)N1C[C@@H]1CCCC[C@H]1CN1CCN(c2nsc3ccccc23)CC1 ? Its half-life was 48

----------
- method: Example 2: posaconazole pharmacokinetics in normal-weight and obese subjects
- Assay type: in vivo, human
- experimental.context: human, plasma, oral, Obese; read-out: Washout half-life, Mean ± SD (converted)
measurement.type: half-life (h)
Give bare numbers, in h.

In plain terms, CC[C@@H]([C@H](C)O)n1ncn(-c2ccc(N3CCN(c4ccc(OC[C@@H]5CO[C@@](Cn6cncn6)(c6ccc(F)cc6F)C5)cc4)CC3)cc2)c1=O [posaconazole] has a documented half-life of 53

----------
- method: Plasma ranolazine pharmacokinetics before, during and after posaconazole in normal-weight and obese subjects
- Type: in vivo, human
- experimental.context: human, plasma, oral, 500 mg, Day 25 (10 days after last posaconazole dose); obese subjects; ranolazine 500 mg ER; mean ± SD
measurement.type: half-life (h)
Numbers only, in h.

// sample COc1ccccc1OCC(O)CN1CCN(CC(=O)Nc2c(C)cccc2C)CC1 (stereo not shown) , its half-life was 6.07

----------
So I've got a bunch of compounds here, and I need their Cmax target safe level, Percent of baseline values.
- method: AUC and Cmax target safe levels of CYP3A4 substrate drugs (Table 1)
- experimental.context: human
Numbers only, in %.

Example cases with answers are listed next.
>>> obs_value("N#CC[C@H](C1CCCC1)n1cc(-c2ncnc3[nH]ccc23)cn1")
133
>>> obs_value("O=c1ccc2ccc(OCCCCN3CCN(c4cccc5sccc45)CC3)cc2[nH]1")
120

Reported Cmax target safe level, Percent of baseline for CC#CC(=O)N1CCC[C@H]1c1nc(-c2ccc(C(=O)Nc3ccccn3)cc2)c2c(N)nccn12 was 200

----------
- method: AUC and Cmax target safe levels of CYP3A4 substrate drugs (Table 1)
- experimental.context: upper limit where benefits outweigh risks; approximation, can vary by about ±25%
- Text: In various embodiments, the “Target safe levels” are non-limiting examples of the upper limit of fold change or percent of baseline where in some embodiments the benefits of treating the patient for the condition or disease for which the CYP3A4 substrate drug is indicated outweigh the risks associated with the effects of a drug-drug interaction. […]
So I've got a bunch of molecules here, and I need their Cmax target safe level, Fold change values.
One number for each entry, in fold.

Solved cases below.
>>> obs_value("CCN(CC)CCNC(=O)c1c(C)[nH]c(/C=C2\\C(=O)Nc3ccc(F)cc32)c1C")
1.49
>>> obs_value("CC(C)(NC(=O)C1=C(O)[C@@H]2Oc3c(O)ccc4c3[C@@]23CCN(CC2CC2)[C@H](C4)[C@]3(O)C1)c1nc(-c2ccccc2)no1")
1.38
>>> obs_value("CC(C)(C)c1cc(C(C)(C)C)c(NC(=O)c2c[nH]c3ccccc3c2=O)cc1O")
2.7
>>> obs_value("C=CCN1CC[C@]23c4c5ccc(O)c4O[C@H]2[C@@H](OCCOCCOCCOCCOCCOCCOCCOC)CC[C@@]3(O)[C@H]1C5")
2.86

# evaluate next
Form: molecule = O=C1CCc2ccc(OCCCCN3CCN(c4cccc(Cl)c4Cl)CC3)cc2N1 ; Cmax target safe level, Fold change = 1.4

----------
- method: Plasma ranolazine pharmacokinetics before, during and after posaconazole in normal-weight and obese subjects
- Type: in vivo, human
- experimental.context: human, plasma, oral, 500 mg, Day 18 (3 days after last posaconazole dose); obese subjects; ranolazine 500 mg ER; mean ± SD; read-out: Cmax
- Experimental: Procedures. […] On study day 2, subjects received posaconazole (300 mg delayed-release tablet twice a day), and on the mornings of days 3-15, subjects received posaconazole (300 mg delayed-release tablet daily). […] The area under the plasma concentration curve from time 0 until the last nonzero point was determined by the linear trapezoidal method. […]
measurement.type: Cmax (ng/mL)
Give bare numbers, in ng/mL.

Lab note: COc1ccccc1OCC(O)CN1CCN(CC(=O)Nc2c(C)cccc2C)CC1 (stereo not shown) [ranolazine] gave Cmax of 1100

----------
- method: Plasma ranolazine pharmacokinetics before, during and after posaconazole in normal-weight and obese subjects
- Format: in vivo, human
- experimental.context: human, plasma, oral, 500 mg, Day 22 (7 days after last posaconazole dose); obese subjects; ranolazine 500 mg ER; mean ± SD
measurement.type: AUC(0-inf) (ng·h/mL)
One number for each entry, in ng·h/mL.

Record COc1ccccc1OCC(O)CN1CCN(CC(=O)Nc2c(C)cccc2C)CC1 (stereo not shown) , field AUC(0-inf): 15900

----------
- method: Plasma ranolazine pharmacokinetics before, during and after posaconazole in normal-weight and obese subjects
- Format: in vivo, human
- experimental.context: human, plasma, oral, 500 mg, Day 1; normal-weight subjects; ranolazine 500 mg ER; read-out: Geometric mean Cmax
measurement.type: Cmax (ng/mL)
Answers are plain numbers, in ng/mL.

# Cmax (molecule: COc1ccccc1OCC(O)CN1CCN(CC(=O)Nc2c(C)cccc2C)CC1 (stereo not shown) ) is 665

----------
- method: Plasma ranolazine pharmacokinetics before, during and after posaconazole in normal-weight and obese subjects
- Assay type: in vivo, human
- experimental.context: human, plasma, oral, Day 15 (last day of posaconazole 300 mg daily); normal-weight subjects; ranolazine 500 mg ER; mean ± SD
measurement.type: AUC(0-inf) (ng·h/mL)
Answers are plain numbers, in ng·h/mL.

Entry COc1ccccc1OCC(O)CN1CCN(CC(=O)Nc2c(C)cccc2C)CC1 (stereo not shown) [ranolazine] — recorded AUC(0-inf) = 27500

----------
- method: Plasma ranolazine pharmacokinetics before, during and after posaconazole in normal-weight and obese subjects
- Type: in vivo, human
- experimental.context: human, plasma, oral, 500 mg, Day 29 (14 days after last posaconazole dose); obese subjects; ranolazine 500 mg ER; mean ± SD
- Protocol: Procedures. […] On study day 2, subjects received posaconazole (300 mg delayed-release tablet twice a day), and on the mornings of days 3-15, subjects received posaconazole (300 mg delayed-release tablet daily). […] The area under the plasma concentration curve from time 0 until the last nonzero point was determined by the linear trapezoidal method. […]
measurement.type: half-life (h)
Numbers only, in h.

Measured half-life of COc1ccccc1OCC(O)CN1CCN(CC(=O)Nc2c(C)cccc2C)CC1 (stereo not shown) [ranolazine] : 6.38
